# tested_system: BRAF V600E (Homo sapiens, UniProt P15056, V600E)
# Construct: expressed in transfected cells
# Sequence (P15056 whole entry V600E): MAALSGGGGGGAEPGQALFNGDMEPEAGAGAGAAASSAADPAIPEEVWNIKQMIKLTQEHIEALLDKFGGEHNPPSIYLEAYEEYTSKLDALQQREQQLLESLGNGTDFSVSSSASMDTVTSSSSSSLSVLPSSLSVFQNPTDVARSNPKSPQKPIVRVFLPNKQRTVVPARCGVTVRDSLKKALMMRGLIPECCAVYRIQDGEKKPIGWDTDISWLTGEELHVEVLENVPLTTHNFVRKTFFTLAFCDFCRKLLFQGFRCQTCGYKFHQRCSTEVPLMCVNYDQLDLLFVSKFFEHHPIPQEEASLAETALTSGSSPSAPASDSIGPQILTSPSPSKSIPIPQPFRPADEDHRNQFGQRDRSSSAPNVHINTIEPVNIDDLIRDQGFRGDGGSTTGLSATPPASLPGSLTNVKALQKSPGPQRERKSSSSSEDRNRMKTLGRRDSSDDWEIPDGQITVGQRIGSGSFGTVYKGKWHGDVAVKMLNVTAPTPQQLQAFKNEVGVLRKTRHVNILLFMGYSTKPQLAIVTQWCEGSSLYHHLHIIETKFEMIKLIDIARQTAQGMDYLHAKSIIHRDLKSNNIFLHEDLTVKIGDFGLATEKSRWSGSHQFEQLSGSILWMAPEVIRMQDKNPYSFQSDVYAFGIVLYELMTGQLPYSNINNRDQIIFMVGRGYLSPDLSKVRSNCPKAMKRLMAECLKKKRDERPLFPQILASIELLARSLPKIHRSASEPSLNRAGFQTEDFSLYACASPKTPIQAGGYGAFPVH
# procedure_summary: Cellular assay of target protein degradation, T-Rex 293 cells stably transfected with HA-BRAF_V600E (HA immunofluorescence, high content imaging)
# Assay type: cell-based
# stated_conditions: half maximal degradation, T-Rex 293 HA-BRAF V600E; read-out: BRaf V600E DC50
metric_name: DC50

| compound | tested_system | DC50 |
| --- | --- | --- |
| O=C1CC[C@@H](N2Cc3cc(C4CCN(CC5CCN(c6ccc(-c7cnc8[nH]cc(C(=O)c9c(F)ccc(NS(=O)(=O)N%10CCC(F)(F)C%10)c9F)c8c7)cc6)CC5)CC4)ccc3C2=O)C(=O)N1 | BRAF V600E (Homo sapiens, UniProt P15056, V600E) | 0.005 to 0.05 µM |
| Cn1c(=O)n(C2CCC(=O)NC2=O)c2cccc(C3CCN(CC4CCN(c5ccc(-c6cnc7[nH]cc(C(=O)c8c(F)ccc(NS(=O)(=O)N9CC[C@@H](F)C9)c8F)c7c6)cc5)CC4)CC3)c21 (stereo partly drawn) | BRAF V600E (Homo sapiens, UniProt P15056, V600E) | 0.005 to 0.05 µM |
| O=C1CC[C@@H](NC(=O)c2ccc(N3CC4(CN(CC5CCN(c6ccc(-c7cnc8[nH]cc(C(=O)c9c(F)ccc(NS(=O)(=O)N%10CC[C@@H](F)C%10)c9F)c8c7)cc6)CC5)C4)C3)cn2)C(=O)N1 | BRAF V600E (Homo sapiens, UniProt P15056, V600E) | 0.05 to 0.5 µM |
| O=C1CC[C@H](NC(=O)c2ccc(CCCN3CC4(C3)CN(c3ccc(-c5cnc6[nH]cc(C(=O)c7c(F)ccc(NS(=O)(=O)N8CC[C@@H](F)C8)c7F)c6c5)cc3)C4)cc2F)C(=O)N1 | BRAF V600E (Homo sapiens, UniProt P15056, V600E) | 0.05 to 0.5 µM |
| O=C1CC[C@H](NC(=O)c2cc(C3CCN(CC4CCN(c5ccc(-c6cnc7[nH]cc(C(=O)c8c(F)ccc(NS(=O)(=O)N9CC[C@@H](F)C9)c8F)c7c6)cc5)CC4)CC3)ccc2F)C(=O)N1 | BRAF V600E (Homo sapiens, UniProt P15056, V600E) | 0.005 to 0.05 µM |
| O=C1CCN(c2ccc(C3CCN(CC4CCN(c5ccc(-c6cnc7[nH]cc(C(=O)c8c(F)ccc(NS(=O)(=O)N9CC[C@@H](F)C9)c8F)c7c6)cc5)CC4)CC3)cc2F)C(=O)N1 | BRAF V600E (Homo sapiens, UniProt P15056, V600E) | 0.005 to 0.05 µM |

Input line: // query DC50 value for entry `CCCS(=O)(=O)Nc1ccc(F)c(C(=O)c2c[nH]c3ncc(-c4ccc(N5CC6(CN(CC7CCN(c8cc9c(c(OC)c8)C(=O)N([C@@H]8CCC(=O)NC8=O)C9)CC7)C6)C5)cc4)cc23)c1F`
Output line: 0.005 to 0.05 µM

Input line: Return reported DC50; argument: `O=C1CC[C@@H](N2Cc3cc(N4CCN(CC5CCN(c6ccc(-c7cnc8[nH]cc(C(=O)c9c(F)ccc(NS(=O)(=O)N%10CC[C@@H](F)C%10)c9F)c8c7)cc6)CC5)CC4)ccc3C2=O)C(=O)N1`
Output line: 0.005 to 0.05 µM

Input line: What does the data say about its DC50? Entry: `O=C1CC[C@H](N2Cc3cc(C4CCN(CC5CCN(c6ccc(-c7cnc8[nH]cc(C(=O)c9c(F)ccc(NS(=O)(=O)N%10CCCC%10)c9F)c8c7)cc6)CC5)CC4)ccc3C2=O)C(=O)N1`
Output line: 0.005 to 0.05 µM

Input line: For the compound `O=C1CC[C@H](N2Cc3cc(C4CCN(CC5CCN(c6ccc(-c7cnc8[nH]cc(C(=O)c9c(F)ccc(NS(=O)(=O)N%10CC[C@@H](F)C%10)c9C(F)(F)F)c8c7)cc6)CC5)CC4)ccc3C2=O)C(=O)N1` , what DC50 is on record?
Output line: 0.05 to 0.5 µM

Input line: Recorded DC50 for COc1cc(C2CCN(CC3CCN(c4ccc(-c5cnc6[nH]cc(C(=O)c7c(F)ccc(NS(=O)(=O)N8CC[C@@H](F)C8)c7F)c6c5)cn4)CC3)CC2)cc2c1C(=O)N(C1CCC(=O)NC1=O)C2 (stereo partly drawn) , please?
Output line: 0.005 to 0.05 µM

Input line: I am curious: what DC50 value has been reported for O=C1CCC(N2Cc3cc(N4CCC(COCC5CCN(c6ccc(-c7cnc8[nH]cc(C(=O)c9c(F)ccc(NS(=O)(=O)N%10CC[C@@H](F)C%10)c9F)c8c7)cc6)CC5)CC4)ccc3C2=O)C(=O)N1 (stereo partly drawn) ?
Output line: 0.005 to 0.05 µM

Input line: Given the compound O=C1CCC(N2Cc3cc(N4CCN(CCCC5CCN(c6ccc(-c7cnc8[nH]cc(C(=O)c9c(F)ccc(NS(=O)(=O)N%10CC[C@@H](F)C%10)c9F)c8c7)cc6)CC5)CC4)ccc3C2=O)C(=O)N1 (stereo partly drawn) , what is its reported DC50?
Output line: 0.005 to 0.05 µM

Input line: Please report the recorded DC50 for `CN(CCO)S(=O)(=O)Nc1ccc(F)c(C(=O)c2c[nH]c3ncc(-c4ccc(N5CCC(CN6CCC(c7ccc8c(c7)CN([C@H]7CCC(=O)NC7=O)C8=O)CC6)CC5)cc4)cc23)c1F` .
Output line: 0.005 to 0.05 µM

Input line: Look up DC50: COc1cc([C@@H](O)CCN2CCN(c3ccc(-c4cnc5[nH]cc(C(=O)c6c(F)ccc(NS(=O)(=O)N7CC[C@@H](F)C7)c6F)c5c4)cc3)CC2)cc2c1C(=O)N([C@H]1CCC(=O)NC1=O)C2 (stereo in doubt)
Output line: 0.05 to 0.5 µM

Input line: Query (compound): `COc1cc(N2CC3(CN(CC4CCN(c5ccc(-c6cnc7[nH]cc(C(=O)c8c(F)ccc(NS(=O)(=O)N9CC[C@@H](F)C9)c8F)c7c6)cc5)CC4)C3)C2)cc2c1C(=O)N([C@H]1CCC(=O)NC1=O)C2` ; field requested: DC50
Output line: 0.005 to 0.05 µM

Input line: Give its DC50 value. Item: `O=C1CC[C@@H](NC(=O)c2ccc(N3CCC(CN4CCN(c5ccc(-c6cnc7[nH]cc(C(=O)c8c(F)ccc(NS(=O)(=O)N9CC[C@@H](F)C9)c8F)c7c6)cc5)CC4)CC3)cc2F)C(=O)N1`
Output line: 0.05 to 0.5 µM

Input line: Give the measured DC50 of `O=C1CC[C@@H](NC(=O)c2ccc(N3CCN(CCc4ccc(-c5cnc6[nH]cc(C(=O)c7c(F)ccc(NS(=O)(=O)N8CC[C@@H](F)C8)c7F)c6c5)cc4)CC3)cc2F)C(=O)N1` .
Output line: 0.05 to 0.5 µM
